EXPERIMENT_DESCRIPTION: NCI Yeast Anticancer Drug Screen. Data for the rad50 strain (AID 155);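 also: 0% = growth of vehicle-only cultures of the same strain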
CONDITION_INFO: S. cerevisiae rad50 strain growth inhibition; at 50.0 µM; active compounds read high
The panel holds about 79,000 compounds, 15% with a hit somewhere; the sample as a whole holds those more often.
Each item that follows carries a reported growth inhibition.
Number in %, nothing else.

Previously resolved entries follow.
MOLECULE	RESULT_UNIT	growth inhibition
O=C(NNC(=O)c1cccc(F)c1)c1ccccc1	%	-25.8
CCCC(C)c1ccc(OCc2ccc(C)cc2)cc1 (stereo unspecified)	%	1.6
Oc1ccc2ccccc2c1/C=N\Sc1ccc(Br)cc1	%	35.1
COc1cc(C(=O)O)cc(OC)c1OC(C)=O	%	6.65
COc1ccc(C2=Nc3c(nc(SC)[nH]c3=O)NC(c3ccccc3)C2)cc1 (stereo unspecified)	%	9.45

The record that follows has no growth inhibition shown yet.
## Input Given the molecule CC1(C(=O)Sc2ccccc2)OC1(C)c1ccccc1 (stereo unspecified) , what is its reported growth inhibition?
## Output -8.5

---

EXPERIMENT_DESCRIPTION: NCI Yeast Anticancer Drug Screen. Data for the rad50 strain (AID 155);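 also: 0% = growth of vehicle-only cultures of the same strain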
CONDITION_INFO: S. cerevisiae rad50 strain growth inhibition; at 50.0 µM
This is part of a sample that, as a whole, favours compounds with a hit. Of some 79,000 tested, about 15% had one in any assay. Active and inactive are the calls of the source. Rule as the data show it: active = growth inhibition above about 70%; inactive = the rest.
// one of active, inactive, no free text

Take a look at these entries with their results.
COMPOUND	CLASS_NAME
CCNC(=O)C1CC2C=CC1C2 (stereo not drawn)	inactive
COc1cc(OC)c(NC(=O)C(Cl)(Cl)Cl)cc1Cl	inactive
O=C(C#Cc1ccccc1)[O][Sn]([c]1ccccc1)([c]1ccccc1)[c]1ccccc1	active
Cc1cc(C)c(S(=O)(=O)c2cccs2)c(C)c1	inactive
O=C(NCCc1ccccc1)c1ccc(Cl)cc1	inactive

## Input Recorded test outcome, item O=c1ccc2ccc(OP(=O)(O)O)cc2o1
## Output inactive

## Input Call for entry O=[N+]([O-])c1ccc(N=N/C(=N\Nc2ccccc2)c2nc3ccccc3[nH]2)c([N+](=O)[O-])c1 :
## Output inactive

## Input Outcome logged for CC(=O)NC1c2ccccc2CCC1OC(C)=O (stereo not drawn) in this assay:
## Output inactive

## Input Please let me know the test result on file for CCN(CC)CCOC(=O)c1c(C)c(C)cc(C)c1C .
## Output inactive

---

EXPERIMENT_DESCRIPTION: NCI Yeast Anticancer Drug Screen. Data for the mec2-1 strain (AID 157)
CONDITION_INFO: S. cerevisiae mec2-1 strain, at 50.0 µM, active compounds read high
Experimental: Growth inhibition of yeast strains with defined genetic alterations is measured as a screen for potential anti-cancer activity. Selected strains with alterations in DNA damage repair or cell cycle control were exposed to compounds and growth inhibition was measured relative to vehicle treated controls. The strain used in this assay is mec2-1
About 79,000 compounds went through this panel and 15% of them were active in at least one assay; those are over-represented in the sample as a whole.
QUANTITY_KIND: growth inhibition (%)
Please respond with the number in % and leave the unit unwritten.

Solved entries (count: 5):
COMPOUND	QUANTITY_KIND	VAL
Cc1cnc(N/N=C/c2c(CO)cnc(C)c2O)s1	growth inhibition	9.85
CCCCCCCCCCCCCCCCOP(=O)(O)OP(=O)(O)OCC1OC(n2ccc(N)nc2=O)CC1O (stereo unspecified)	growth inhibition	-3.9
CC(=O)OCC1OC(n2cnc(Br)c2[N+](=O)[O-])C(OC(C)=O)C1OC(C)=O (stereo unspecified)	growth inhibition	3.4
CCCCCCCCNC(C(=O)c1ccc(Cl)cc1)c1ccc(Cl)cc1 (stereo unspecified)	growth inhibition	17.4
COC1c2ccccc2CC1(C)C (stereo unspecified)	growth inhibition	8.8

## Input Requested field: growth inhibition. Item: Cn1c(=O)c2c(ncn2-c2ccc(N)cn2)n(C)c1=O
## Output -4.55

---

EXPERIMENT_DESCRIPTION: NCI Yeast Anticancer Drug Screen. Data for the sgs1 mgt1 strain (AID 161);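 also: 0% = growth of cultures given vehicle only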
CONDITION_INFO: S. cerevisiae sgs1 mgt1 strain, at 50.0 µM, active compounds read high
Compounds without any hit were thinned out: in the full panel of roughly 79,000, 15% have a hit.
QUANTITY_KIND: growth inhibition (%)
Quick reminder: number only, in %, skip the unit.

COMPOUND	VAL
NC(=O)C1CCN(S(=O)(=O)c2ccccc2)CC1	8.55

## Input Entry under review: CC(C)(O)CC(=O)/C=C\c1ccc2c(c1)OCO2 . Reported growth inhibition?
## Output 10.1

## Input Consider the compound CN(C)CCCC[N+](C)(C)Cc1ccc(C[N+](C)(C)CCCC[N+](C)(C)Cc2ccc(CCl)cc2)cc1 and give its measured growth inhibition.
## Output -7.2

## Input Quick one: growth inhibition for O=C(CC(=O)C(=O)CC(=O)OCc1ccccc1)OCc1ccccc1 ?
## Output -0.3

## Input Fill in: growth inhibition of O=P(O)(O)c1ccccc1Oc1ccccc1 is ___
## Output 26.3

## Input Field request: growth inhibition | item: C=C(C)C1Cc2cc(C(C)=O)ccc2O1 (stereo not drawn)
## Output 9.55

## Input For the compound shown here, O=c1c2nn3c(=O)n(-c4ccccc4)c(=O)c3nn2c(=O)n1-c1ccccc1 , give the reported growth inhibition.
## Output -14.8

## Input Param item = O=C(NC(c1ccccc1)C(Cl)(Cl)c1ccccc1)c1ccccc1 (stereo not drawn) ; retrieve measured growth inhibition.
## Output 6.4

## Input Query (compound): ONc1ncnc2nc[nH]c12 ; field requested: growth inhibition
## Output 3.8

## Input Which growth inhibition value belongs to C[C@]12CC[C@@H]3c4ccc(OCCCO)c([N+](=O)[O-])c4CC[C@H]3[C@@H]1CCC2=O ?
## Output 17.7

## Input Please give the measured growth inhibition for this compound: Nc1ccc2cccc(N)c2n1
## Output 8.85

## Input Give the measured growth inhibition of CC(N)(Cc1c[nH]c2ccccc12)C(=O)O (stereo not drawn) .
## Output -16.1

## Input Please give the measured growth inhibition for this compound: c1ccc2c(c1)CCc1c-2n[nH]c1-c1[nH]nc2c1CCc1ccccc1-2
## Output -1.3

## Input Which growth inhibition is reported for this compound? CC(=O)Nc1ncc2ccccc2c1-c1ccc(NC(=O)CCCl)cc1
## Output 19.8

## Input Need growth inhibition, item O=C(CN1CCOCC1)Nc1cccc(Cl)c1
## Output -2.6

## Input Param item = O=C(Cc1nc2ccc(C(=O)c3ccccc3)cc2[nH]c1=O)C(=O)Nc1ccc(Br)cc1 ; retrieve measured growth inhibition.
## Output -2.65

---

EXPERIMENT_DESCRIPTION: NCI Yeast Anticancer Drug Screen. Data for the mlh1 rad18 strain (AID 175)
CONDITION_INFO: S. cerevisiae mlh1 rad18 strain growth inhibition; at 50.0 µM
About 79,000 compounds went through this panel and 15% of them were active in at least one assay; those are over-represented in the sample as a whole. Calls of active or inactive are those of the source. Cut-off read from the data, not from the text of the source: active = growth inhibition above about 70%; inactive = the rest.
Respond using exactly one of the listed classes: True = active, False = inactive

MOLECULE	CLASS_NAME
COc1ccc(CCC(C)(O)c2ccccc2)cc1 (stereo unspecified)	False
CC1(C)N=C(N)N=C(N)N1c1ccc(C(=O)c2ccccc2)cc1	False
C=C/C=N/Nc1ccc([N+](=O)[O-])cc1[N+](=O)[O-]	False
O=C(O)c1cc(=O)c2cc(Cl)ccc2[nH]1	False
O=C1Cn2c(c3c(nc2=O)CCCC3)N1	False

## Input I'd appreciate the recorded outcome for COc1cc(/C=N/NC(=O)C(=O)N/N=C/c2cc(OC)c(OC)c(OC)c2)cc(OC)c1OC from this test.
## Output False

## Input Name the outcome recorded for CC(C)(C)OC(=O)N(CCCN)CCCCN(CCCN)C(=O)OC(C)(C)C in the assay.
## Output False

## Input Answer briefly: the call reported for CCCCCC(=O)Cc1cc(O)cc2c1C(=O)Oc1cc(O)c(C(=O)O)c(CCCCC)c1O2 in this assay.
## Output False

## Input Hi, do you know how COc1ccc(C(C)=O)cc1CCCOC(C)=O came out in this test?
## Output False

## Input How did this test come out for C/C(=N/NC(=S)N1CCCCC1)c1ccccc1O ?
## Output False

## Input Record lookup: outcome of this test for NC(=O)CSCC(=O)O ?
## Output False

## Input For CC(C)(C)C1=CC(=O)C(C#N)(C(C)(C)C)C1=O (stereo unspecified) , which call appears in the assay record?
## Output False

## Input Dear all, I need the recorded test outcome for CCOc1ccccc1C(=O)OCCCc1ccccc1 , thank you.
## Output False

## Input How was CC(C)(C)NCC(CN1CCOCC1)C(=O)c1ccccc1 (stereo unspecified) classified in this test?
## Output True

---

EXPERIMENT_DESCRIPTION: NCI Yeast Anticancer Drug Screen. Data for the sgs1 mgt1 strain (AID 161);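 also: 0% = growth of cultures given vehicle only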
CONDITION_INFO: S. cerevisiae sgs1 mgt1 strain, at 50.0 µM, active compounds read high
This is part of a sample that, as a whole, favours compounds with a hit. Of some 79,000 tested, about 15% had one in any assay.
Examples of molecules with documented growth inhibition follow.
Report only the number, with the unit % understood.

## Input What measured growth inhibition goes with O=C1NC(N2CCCCC2)=N/C1=C\c1ccccc1O ?
## Output -2.85

## Input Can you look up the measured growth inhibition of O=C1C=C(CCC2=CC(=O)c3ccccc3C2=O)C(=O)c2ccccc21 for me?
## Output -26.9
